test: Chronic toxicity in po dosed female rat assessed as no observable adverse effect level administered daily for 28 days; format: organism-based; settings: in vivo
Measured Metric: NOAEL at 672 h

Query: Quick one: NOAEL at 672 h for Cl.S=C(NCc1ccc2c(c1)OCO2)N1CCN(c2ncnc3c2oc2ccccc23)CC1 [AMUVATINIB HYDROCHLORIDE] ?
Response: 20 mg/kg/day

* * *

What solubility was measured for each of the following?
assay: Solubility of the compound in PBS buffer at pH 7; type: physicochemical
Give bare numbers, in µg/mL.

O=S(=O)(O)O.S=C(NCc1ccc2c(c1)OCO2)N1CCN(c2ncnc3c2oc2ccccc23)CC1	1.7

Query molecule follows.
Query: Quick one: solubility for CS(=O)(=O)O.S=C(NCc1ccc2c(c1)OCO2)N1CCN(c2ncnc3c2oc2ccccc23)CC1 ?
Response: 2.16

Data provenance: ChEMBL document CHEMBL3991943
